Reported Ki values follow for various binders
# experimentalSystem: mouse MMP-2 (R&D Systems #924-MP-010) (mouse) (UniProt P33434)
# assayNotes: Ki,app, enzyme inhibition assay (fluorogenic peptide substrate), small-scale sFab
Write the answer as a number in nM, unit excluded.

Previously resolved entries follow.
binder	Ki [nM]
M0275-E12 (Fab, V domains shown) VH: EVQLLESGGGLVQPGGSLRLSCAASGFTFSHYDMWWVRQAPGKGLEWVSVIYSSGGFTGYADSVKGRFTISRDNSKNTLYLQMNSLRAEDTAVYYCAKDRAYGDYVGWNGFDYWGQGTLVTVSS VL: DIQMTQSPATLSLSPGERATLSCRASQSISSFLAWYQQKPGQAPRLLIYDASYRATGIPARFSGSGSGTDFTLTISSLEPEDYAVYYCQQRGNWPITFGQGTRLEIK	15
M0273-A11 (Fab, V domains shown) VH: EVQLLESGGGLVQPGGSLRLSCAASGFTFSRYDMWWVRQAPGKGLEWVSVISPSGGATFYADSVKGRFTISRDNSKNTLYLQMNSLRAEDTAVYYCAKDRAYGDYVGWNGFDYWGQGTLVTVSS VL: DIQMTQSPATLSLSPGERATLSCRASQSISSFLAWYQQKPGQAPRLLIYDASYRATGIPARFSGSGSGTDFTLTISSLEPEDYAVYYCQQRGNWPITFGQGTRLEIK	32
M0256-D11 (Fab, V domains shown) VH: EVQLLESGGGLVQPGGSLRLSCAASGFTFSHYDMWWVRQAPGKGLEWVSVIYSSGGPTFYADSVKGRFTISRDNSKNTLYLQMNSLRAEDTAVYYCAKDRAYGDYVGWNGFDYWGQGTLVTVSS VL: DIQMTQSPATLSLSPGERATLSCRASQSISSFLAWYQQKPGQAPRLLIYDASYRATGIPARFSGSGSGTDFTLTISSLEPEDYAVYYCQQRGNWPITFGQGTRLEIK	4.2

With those in mind, consider the next binder.
binder M0272-H08 (Fab, V domains shown) VH: EVQLLESGGGLVQPGGSLRLSCAASGFTFSAYDMWWVRQAPGKGLEWVSVIYPSGGTTFYADSVKGRFTISRDNSKNTLYLQMNSLRAEDTAVYYCAKDRAYGDYVGWNGFDYWGQGTLVTVSS VL: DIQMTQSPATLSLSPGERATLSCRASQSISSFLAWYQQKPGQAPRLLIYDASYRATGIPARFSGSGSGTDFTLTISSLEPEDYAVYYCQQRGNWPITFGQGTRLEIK , Ki observed: 46
